- assayedSystem: PvHGPRT (Plasmodium vivax)
- Sequence (A5K7E9 1-233): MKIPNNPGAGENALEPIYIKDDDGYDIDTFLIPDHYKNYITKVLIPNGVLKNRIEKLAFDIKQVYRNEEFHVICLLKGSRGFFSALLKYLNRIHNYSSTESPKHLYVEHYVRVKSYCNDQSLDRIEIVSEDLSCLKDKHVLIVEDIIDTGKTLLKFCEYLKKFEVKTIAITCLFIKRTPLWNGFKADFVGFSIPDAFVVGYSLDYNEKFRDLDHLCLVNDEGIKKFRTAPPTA
- measurementDescription: biochemical
- conditionDetails: Ki(app), 25° C., pH 7.4, guanine 60 μM; read-out: Ki Pv
Lab note: cut-off is 20 µM. Strictly less in Ki is 1. Exactly 20 µM or more is 0.

molecule	classification
N#CCN(CCn1cnc2c(=O)[nH]cnc21)CCP(=O)(O)O [Example 18]	0
O=c1[nH]cnc2c1ncn2CCN(CCO)CCP(=O)(O)O [Example 24]	0
COC(=O)CCCN(CCn1cnc2c(=O)[nH]cnc21)CCP(=O)(O)O [Example 17]	0

stdin: Dear reviewer, please state whether CC(C#N)CN(CCn1cnc2c(=O)[nH]cnc21)CCP(=O)(O)O (stereo not shown) [Example 20] has Ki strictly beneath 20 µM.
stdout: 0

stdin: Would you kindly verify if Ki of CCOC(=O)CN(CCn1cnc2c(=O)[nH]cnc21)CCP(=O)(O)O [Example 15] is strictly less than 20 µM?
stdout: 1

stdin: Consider the molecule O=C(O)CCN(CCn1cnc2c(=O)[nH]cnc21)CCP(=O)(O)O [Example 22] . Is its Ki strictly less than 20 µM?
stdout: 0

stdin: Please let me know if N#CCCN(CCn1cnc2c(=O)[nH]cnc21)CCP(=O)(O)O [Example 19] shows Ki below 20 µM.
stdout: 1

stdin: Just wondering, is Ki of O=c1[nH]cnc2c1ncn2CCNCCP(=O)(O)O [Example 26] below 20 µM?
stdout: 0

stdin: is_below(Ki, 20 µM) for COC(=O)CCN(CCn1cnc2c(=O)[nH]cnc21)CCP(=O)(O)O [Example 16] ?
stdout: 0

stdin: API: query returns whether the molecule falls strictly under 20 µM in Ki. Query: Nc1nc2c(ncn2CCNCCP(=O)(O)O)c(=O)[nH]1 [Example 12]
stdout: 1
